Sourced from patent EP4763837A1

assay: Photochromic property of photochromic laminate made by coating method; assay type: physicochemical
VALUE_KIND: Color fading half-life at 23°C (min)

Examples with their reported Color fading half-life at 23°C follow.
[[record]]
compound = "CCCOc1ccc(C2(c3ccc(OC)cc3)C=Cc3c4c(c5cc(OC)c(OC)cc5c3O2)-c2ccc(N(C)c3ccccc3)cc2C4(CC)CCC)cc1 (stereo not drawn) [Formula (87-1)]"
value_kind = "Color fading half-life at 23°C"
number = 2.65

[[record]]
compound = "CCCC1(CC)c2cc(C)ccc2-c2c1c1c(c3cc(OC)c(-c4ccc(N5CCOCC5)cc4)cc23)OC(c2ccc(C)cc2)(c2ccc(N(C)c3ccccc3)cc2)C=C1 (stereo not drawn) [Formula (84-1)]"
value_kind = "Color fading half-life at 23°C"
number = 2


[a] CCC1(C)c2cc(OC)ccc2-c2c1c1c(c3cc(OC)c(Sc4c(C)cccc4C)cc23)OC(c2ccc(OC)cc2)(c2ccc(N3CCOCC3)cc2)C=C1 (stereo not drawn) [Formula (74-2)]
[b] CCCC1(C)c2cc(C)ccc2-c2c1c1c(c3cc(C)ccc23)OC(c2ccc(C)cc2)(c2ccc(OC)cc2)C=C1 (stereo not drawn) [Formula (1-5)]
*Q* Kindly identify the item with the lower Color fading half-life at 23°C figure among these two: a and b Refer to your chosen entry by its label in the reply.
*A* a
(a: 1.5 min, b: 2.28 min)

[P] CCCCC1(CC)c2ccccc2-c2c1c1c(c3cc(OC)c(-c4ccccc4N4CCOCC4)cc23)OC(c2ccc(OC)cc2)(c2ccc(OC)cc2)C=C1 (stereo not drawn) [Formula (81-2)]
[Q] CCCC1(CC)c2cc(Sc3c(C)cccc3C)ccc2-c2c1c1c(c3cc(OC)ccc23)OC(c2ccc(OC)cc2)(c2ccc(N(C)c3ccccc3)cc2)C=C1 (stereo not drawn) [Formula (88-1)]
*Q* Which one would you say has the larger Color fading half-life at 23°C value: P , or Q ? Your answer should be the label of the entry you select.
*A* P

[a] CCCCC1(CCC)c2ccccc2-c2c1c1c(c3cc(OC)c(N4CCOCC4)cc23)OC(c2ccc(OC)cc2)(c2ccc(OC)cc2)C=C1 (stereo not drawn) [Formula (6-2)]
[b] CCC1(C)c2ccccc2-c2c1c1c(c3cc(OC)c(N(C)c4ccccc4)cc23)OC(c2ccc(OC)cc2)(c2ccc(OC)cc2)C=C1 (stereo not drawn) [Formula (9-1)]
*Q* // select label with min value of measured Color fading half-life at 23°C from [ a , b ] Refer to your chosen entry by its label in the reply.
*A* b

[I] CCCCC1(CCC)c2cc(C)ccc2-c2c1c1c(c3cc(OC)c(-c4ccc(N5CCOCC5)cc4)cc23)OC(c2ccc(OC)cc2)(c2ccc(N3CCOCC3)cc2)C=C1 (stereo not drawn) [Formula (10-1)]
[II] CCC1(OC)c2ccccc2-c2c1c1c(c3cc(OC)c(N4CCOCC4)cc23)OC(c2ccc(OC)cc2)(c2ccc(OC)cc2)C=C1 (stereo not drawn) [Formula (B), reference compound]
*Q* Form field 'greater Color fading half-life at 23°C' accepts I or II ; which applies? Mark your selection by writing its label.
*A* I

----------
experiment: Solubility of photochromic compound in polymerizable compounds; assay type: physicochemical; design: key: 1: No haze is seen when checked under transmission of light, and the sample is completely dissolved.; 2: A very thin haze is seen to the extent that it can be seen under transmission of light.; 3: A thin haze that can be seen under transmission of light is seen.; 4: A haze can be seen even without transmission of light; conditions: 35 µmol/g in radical polymerizable compound composition of Example 21, 65 to 70°C, stirring and ultrasonic irradiation
VALUE_KIND: Dissolution for 15 min

[[record]]
compound = "CCCCCCC1(CCCC)c2cc(OC)ccc2-c2c1c1c(c3cc(OC)c(Sc4c(C)cccc4C)cc23)OC(c2ccc(OC)cc2)(c2ccc(N3CCOCC3)cc2)C=C1 (centres unmarked)"
value_kind = "Dissolution for 15 min"
number = 3

[[record]]
compound = "CCC1(C)c2ccccc2-c2c1c1c(c3cc(OC)c(N(C)c4ccccc4)cc23)OC(c2ccc(OC)cc2)(c2ccc(OC)cc2)C=C1 (centres unmarked)"
value_kind = "Dissolution for 15 min"
number = 4

[[record]]
compound = "CCC1(CC)CCC2(CC1)c1cc(OC)ccc1-c1c2c2c(c3cc(OC)c(Sc4c(C)cccc4C)cc13)OC(c1ccc(OC)cc1)(c1ccc(N3CCOCC3)cc1)C=C2 (centres unmarked) [Formula (J), reference compound]"
value_kind = "Dissolution for 15 min"
number = 4

[[record]]
compound = "CCCCCCC1(C)c2cc(OC(F)(F)F)ccc2-c2c1c1c(c3cc(OC)ccc23)OC(c2ccc(OC)cc2)(c2ccc(OC)cc2)C=C1 (centres unmarked)"
value_kind = "Dissolution for 15 min"
number = 3

[[record]]
compound = "CCCC1(C)c2ccccc2-c2c1c1c(c3cc(OC)c(-c4c(OC)cc(OC)cc4OC)cc23)OC(c2ccc(OC)cc2)(c2ccc(N(c3ccccc3)c3ccccc3)cc2)C=C1 (centres unmarked)"
value_kind = "Dissolution for 15 min"
number = 4


----------
Assay: Solubility of photochromic compound in polymerizable compounds
Type: physicochemical
Design: key: 1: No haze is seen when checked under transmission of light, and the sample is completely dissolved.; 2: A very thin haze is seen to the extent that it can be seen under transmission of light.; 3: A thin haze that can be seen under transmission of light is seen.; 4: A haze can be seen even without transmission of light
Settings: 35 µmol/g in radical polymerizable compound composition of Example 21, 65 to 70°C, stirring and ultrasonic irradiation
Method: The photochromic compounds according to Examples and Comparative examples shown in Table 5 were evaluated for solubility in polymerizable compounds. […] Dissolution was checked every 15 minutes up to 1 hour later, the sample was visually checked by transmitting light through the sample, and a degree of dissolution was evaluated according to the following four evaluation criteria. […]
VALUE_KIND: Dissolution for 15 min

[[record]]
compound = "COc1ccc(C2(c3ccc(N4CCOCC4)cc3)C=Cc3c4c(c5ccc(OC)cc5c3O2)-c2ccc(OC)cc2C42CC(C)(C)CC(C)(C)C2)cc1 (stereo not drawn) [Formula (E), reference compound]"
value_kind = "Dissolution for 15 min"
number = 4

[[record]]
compound = "CCCCC1(CC)c2cc(OC)ccc2-c2c1c1c(c3cc(OC)c(Sc4c(C)cccc4C)cc23)OC(c2ccc(OC)cc2)(c2ccc(N3CCOCC3)cc2)C=C1 (stereo not drawn)"
value_kind = "Dissolution for 15 min"
number = 3

[[record]]
compound = "CCC1(OC)c2ccccc2-c2c1c1c(c3cc(OC)c(N4CCOCC4)cc23)OC(c2ccc(OC)cc2)(c2ccc(OC)cc2)C=C1 (stereo not drawn) [Formula (B), reference compound]"
value_kind = "Dissolution for 15 min"
number = 4

[[record]]
compound = "CCCCC1(CC)c2ccccc2-c2c1c1c(c3cc(OC)c(N(C)c4ccccc4)cc23)OC(c2ccc(OC)cc2)(c2ccc(OC)cc2)C=C1 (stereo not drawn)"
value_kind = "Dissolution for 15 min"
number = 3

[[record]]
compound = "CCCC1(CC)c2ccccc2-c2c1c1c(c3cc(OC)c(N4CCOCC4)cc23)OC(c2ccc(OC)cc2)(c2ccc(OC)cc2)C=C1 (stereo not drawn)"
value_kind = "Dissolution for 15 min"
number = 4

[[record]]
compound = "CCC(C)C1(CC)c2cc(OC)ccc2-c2c1c1c(c3cc(OC)ccc23)OC(c2ccc(OC)cc2)(c2ccc(N3CCOCC3)cc2)C=C1 (stereo not drawn)"
value_kind = "Dissolution for 15 min"
number = 3


----------
assay: Photochromic property of binder sheet (photochromic layer made by binder method); assay type: physicochemical; settings: A96/A0 x 100 after 96 hours accelerated degradation, xenon weather meter X25
VALUE_KIND: Residual ratio (%)

[[record]]
compound = "CCCC1(CC)c2ccccc2-c2c1c1c(c3cc(OC)c(Sc4c(C)cccc4C)cc23)OC(c2ccc(OC)cc2)(c2ccc(N3CCOCC3)cc2)C=C1 (stereo not shown) [Formula (4-5)]"
value_kind = "Residual ratio"
number = 90

[[record]]
compound = "CCCC1(CC)c2ccccc2-c2c1c1c(c3cc(OC)c(N4CCOCC4)cc23)OC(c2ccc(OC)cc2)(c2ccc(OC)cc2)C=C1 (stereo not shown) [Formula (14-1)]"
value_kind = "Residual ratio"
number = 75

[[record]]
compound = "CCCC1(C)c2cc(C)ccc2-c2c1c1c(c3cc(C)ccc23)OC(c2ccc(C)cc2)(c2ccc(OC)cc2)C=C1 (stereo not shown) [Formula (1-5)]"
value_kind = "Residual ratio"
number = 82

[[record]]
compound = "CCC1(C)c2ccccc2-c2c1c1c(c3cc(OC)c(N(C)c4ccccc4)cc23)OC(c2ccc(OC)cc2)(c2ccc(OC)cc2)C=C1 (stereo not shown) [Formula (9-1)]"
value_kind = "Residual ratio"
number = 93


----------
test: Photochromic property of photochromic laminate made by coating method; type: physicochemical; conditions: laminate by coating method; A96/A0 x 100 after 96 hours accelerated degradation, xenon weather meter X25
VALUE_KIND: Residual ratio (%)

[[record]]
molecule = "CCCC1(CC)c2cc(OC)ccc2-c2c1c1c(c3cc(OC)ccc23)OC(c2ccc(OC)cc2)(c2ccc(N3CCOCC3)cc2)C=C1 (stereo not drawn)"
value_kind = "Residual ratio"
number = 57

[[record]]
molecule = "CCCCC1(CC)c2ccccc2-c2c1c1c(c3cc(OC)c(-c4ccc(N(c5ccccc5)c5ccccc5)cc4)cc23)OC(c2ccc(N(C)c3ccccc3)cc2)(c2ccc(OCCC)c(F)c2)C=C1 (stereo not drawn)"
value_kind = "Residual ratio"
number = 68

[[record]]
molecule = "CCCOc1ccc(C2(c3ccc(OC)cc3)C=Cc3c4c(c5cc(OC)c(OC)cc5c3O2)-c2ccc(N(C)c3ccccc3)cc2C4(CC)CCC)cc1 (stereo not drawn)"
value_kind = "Residual ratio"
number = 64

[[record]]
molecule = "CCC1(C)c2ccccc2-c2c1c1c(c3cc(OC)c(N(C)c4ccccc4)cc23)OC(c2ccc(OC)cc2)(c2ccc(OC)cc2)C=C1 (stereo not drawn)"
value_kind = "Residual ratio"
number = 71

[[record]]
molecule = "CCCOc1ccc(C2(c3ccc(OC)cc3)C=Cc3c4c(c5cc(C)c(OC)cc5c3O2)-c2ccc(N3CCOc5ccccc53)cc2C4(C)CC)cc1 (stereo not drawn)"
value_kind = "Residual ratio"
number = 64

[[record]]
molecule = "CCC1(C)c2ccccc2-c2c1c1c(c3cc(OC)c(-c4ccc(OC)cc4OC)cc23)OC(c2ccc(OC)cc2)(c2ccc(N(C)c3ccccc3)cc2)C=C1 (stereo not drawn)"
value_kind = "Residual ratio"
number = 63

